- Test system: CCRF-CEM
- method-notes: Effective concentration to inhibit HIV-1 replication by 50% in CEM cells
- Type: functional, cell-based
- measurement-setup: Homo sapiens
test-readout: EC50 (nM)

                              smiles_record  test_readout  measured_number
0  COC(=O)[C@H](Cc1c[nH]c2ccccc12)NP(=O)(O)OC[C@H]1O[C@@H](n2cc(C)c(=O)[nH]c2=O)C[C@@H]1N=[N+]=[N-]          EC50                4

Reference source: ChEMBL document CHEMBL1134778
